- Test system: A-375
- assay.procedure: Antiproliferative activity against human A375 cells at 8 uM after 72 hrs by CCK-8 assay relative to control
- Type: functional
- assay.context: A-375, 72 h
Quick reference: inhibition at 8 µM of the listed items.
Entry rule: numbers only, all in %.

Here's what some known entries look like.
[[record]]
smiles_string = "Nc1ccccc1NC(=O)c1ccc(CSC(=S)N2CCCc3ccccc32)cc1"
property_label = "inhibition at 8 µM"
value_measured = 81.5

[[record]]
smiles_string = "Nc1ccccc1NC(=O)c1ccc(CSC(=S)N(Cc2ccccc2)Cc2ccccc2)cc1"
property_label = "inhibition at 8 µM"
value_measured = 32.5

[[record]]
smiles_string = "Nc1ccccc1NC(=O)c1ccc(CSC(=S)N2CCc3cc([N+](=O)[O-])ccc32)cc1"
property_label = "inhibition at 8 µM"
value_measured = 29.5

[[record]]
smiles_string = "Nc1ccccc1NC(=O)c1ccc(CSC(=S)N2CCN(c3ccccc3)CC2)cc1"
property_label = "inhibition at 8 µM"
value_measured = 88.6

[[record]]
smiles_string = "Nc1ccccc1NC(=O)c1ccc(CSC(=S)N2CCN(C(c3ccccc3)c3ccccc3)CC2)cc1"
property_label = "inhibition at 8 µM"
value_measured = 8.4

[[record]]
smiles_string = "Nc1ccccc1NC(=O)c1ccc(CSC(=S)N2CCc3ccc([N+](=O)[O-])cc32)cc1"
property_label = "inhibition at 8 µM"
value_measured = 42


Request: What does the data say about its inhibition at 8 µM? Entry: `Nc1ccccc1NC(=O)c1ccc(CNC(=O)OCc2cccnc2)cc1`
Result: 88.7

Request: Endpoint output: inhibition at 8 µM of `Nc1ccccc1NC(=O)c1ccc(CSC(=S)N2CCc3ccccc32)cc1` . Value?
Result: 85.4

Request: Quick one: inhibition at 8 µM for `Nc1ccccc1NC(=O)c1ccc(CSC(=S)N2CCN(Cc3ccncc3)CC2)cc1` ?
Result: 89.5

Request: Dear colleague, I am looking for the recorded inhibition at 8 µM of the following molecule: `CN(Cc1cccnc1)C(=S)SCc1ccc(C(=O)Nc2ccccc2N)cc1`
Result: 83.8

====

// reported Activity per item
- System: SMMC-7721
- assay.procedure: Cell cycle arrest in human SMMC7721 cells assessed as accumulation of cells at S phase at 4 umol/L after 72 hrs by propidium iodide staining-based flow cytometric analysis (reference value: 5.21%)
- Assay type: functional
Hi! Could you send only the number? It should be in %, unit omitted.

[[record]]
smiles_string = "Nc1ccccc1NC(=O)c1ccc(CSC(=S)N2CCc3ccccc3C2)cc1"
property_label = "Activity"
uom = "%"
value_measured = 7.63

[[record]]
smiles_string = "Nc1ccccc1NC(=O)c1ccc(CSC(=S)N2CCN(c3ccncc3)CC2)cc1"
property_label = "Activity"
uom = "%"
value_measured = 2.76

[[record]]
smiles_string = "Nc1ccccc1NC(=O)c1ccc(CNC(=O)OCc2cccnc2)cc1"
property_label = "Activity"
uom = "%"
value_measured = 7.55

[[record]]
smiles_string = "CCN(Cc1ccncc1)C(=S)SCc1ccc(C(=O)Nc2ccccc2N)cc1"
property_label = "Activity"
uom = "%"
value_measured = 9.19


Proceed to the following item.
Request: Which Activity is reported for this compound? `Nc1ccc(F)cc1NC(=O)c1ccc(CNC(=O)/C=C/c2cccnc2)cc1`
Result: 5.54

====

- target.system: Histone deacetylase 2 (Homo sapiens, UniProt Q92769)
- Sequence (Q92769 whole entry): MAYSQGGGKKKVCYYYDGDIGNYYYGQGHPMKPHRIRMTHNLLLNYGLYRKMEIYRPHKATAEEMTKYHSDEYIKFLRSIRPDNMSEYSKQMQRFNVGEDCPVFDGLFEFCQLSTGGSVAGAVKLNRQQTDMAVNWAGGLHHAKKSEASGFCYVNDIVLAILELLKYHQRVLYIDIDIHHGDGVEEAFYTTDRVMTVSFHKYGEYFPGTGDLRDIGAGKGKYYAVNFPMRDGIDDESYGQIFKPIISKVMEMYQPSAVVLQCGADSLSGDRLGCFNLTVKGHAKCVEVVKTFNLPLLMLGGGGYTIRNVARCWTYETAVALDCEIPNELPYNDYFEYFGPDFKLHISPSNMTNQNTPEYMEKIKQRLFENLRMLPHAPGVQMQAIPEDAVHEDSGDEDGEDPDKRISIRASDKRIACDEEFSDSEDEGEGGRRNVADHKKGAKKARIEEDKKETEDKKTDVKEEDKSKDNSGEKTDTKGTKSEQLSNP
- assay.procedure: Inhibition of human recombinant HDAC2 using Fluor de Lys-Green as substrate preincubated for 5 mins followed by substrate addition and measured after 1 hr by fluorescence assay
property.label: IC50 (nM)
State the answer as a number, implicitly in nM.

Here are 3 compounds together with their reported answers.
[[record]]
smiles_string = "Nc1ccccc1NC(=O)c1ccc(CSC(=S)N2CCN(c3ccncc3)CC2)cc1"
target_system = "Histone deacetylase 2 (Homo sapiens, UniProt Q92769)"
value_measured = 470

[[record]]
smiles_string = "CCN(Cc1ccncc1)C(=S)SCc1ccc(C(=O)Nc2ccccc2N)cc1"
target_system = "Histone deacetylase 2 (Homo sapiens, UniProt Q92769)"
value_measured = 900

[[record]]
smiles_string = "Nc1ccccc1NC(=O)c1ccc(CSC(=S)N2CCc3ccccc3C2)cc1"
target_system = "Histone deacetylase 2 (Homo sapiens, UniProt Q92769)"
value_measured = 3230


# context switch: different compound, same IC50
Request: Reported IC50, compound `Nc1ccc(F)cc1NC(=O)c1ccc(CNC(=O)/C=C/c2cccnc2)cc1` : ____
Result: 370

====

- Test system: A-375
- assay.procedure: Antiproliferative activity against human A375 cells after 72 hrs by CCK-8 assay
- Type: functional, cell-based
- assay.context: A-375, 72 h
The label is rule met for IC50 below 4 µM and rule not met for IC50 equal to or exceeding 4 µM.

Observe how each entry below is paired with its result.
[[record]]
smiles_string = "Nc1ccccc1NC(=O)c1ccc(CSC(=S)N2CCN(c3ccncc3)CC2)cc1"
classification = "rule met"

[[record]]
smiles_string = "COC(=O)c1ccc2c(c1)CCN2C(=S)SCc1ccc(C(=O)Nc2ccccc2N)cc1"
classification = "rule not met"

[[record]]
smiles_string = "Nc1ccccc1NC(=O)c1ccc(CNC(=O)OCc2cccnc2)cc1"
classification = "rule met"


Now look at this entry.
Request: Please indicate whether the reported IC50 of `CC(=O)Nc1ccc(C(=O)Nc2ccccc2N)cc1` is strictly below 4 µM.
Result: rule not met

====

- System: SMMC-7721
- assay.procedure: Antiproliferative activity against human SMMC7721 cells after 72 hrs by CCK-8 assay
- Format: functional, cell-based
- assay.context: SMMC-7721, 72 h
property.label: pIC50
# reply with the number alone; pIC50 is -log10 of concentration in mol/L

[[record]]
compound = "Nc1ccccc1NC(=O)c1ccc(CSC(=S)N2CCN(c3ccccc3)CC2)cc1"
value_measured = 5.54

[[record]]
compound = "CCN(Cc1ccncc1)C(=S)SCc1ccc(C(=O)Nc2ccccc2N)cc1"
value_measured = 5.92

[[record]]
compound = "Nc1ccccc1NC(=O)c1ccc(CSC(=S)N2CCc3ccccc32)cc1"
value_measured = 5.52


Request: Recorded pIC50 of `Nc1ccccc1NC(=O)c1ccc(CSC(=S)N2CCc3ccccc3C2)cc1` , please.
Result: 5.92

====

- System: A-375
- assay.procedure: Antiproliferative activity against human A375 cells at 8 uM after 72 hrs by CCK-8 assay relative to control
- Assay type: functional
- assay.context: A-375, 72 h
property.label: inhibition at 8 µM

Worked cases, inhibition at 8 µM given:
[[record]]
smiles_string = "Nc1ccccc1NC(=O)c1ccc(CSC(=S)N2CCN(Cc3ccccc3)CC2)cc1"
property_label = "inhibition at 8 µM"
value_measured = "29.3%"

[[record]]
smiles_string = "CCN(Cc1ccncc1)C(=S)SCc1ccc(C(=O)Nc2ccccc2N)cc1"
property_label = "inhibition at 8 µM"
value_measured = "86.2%"

[[record]]
smiles_string = "Nc1ccccc1NC(=O)c1ccc(CSC(=S)N2CCc3ccccc3C2)cc1"
property_label = "inhibition at 8 µM"
value_measured = "86.7%"

[[record]]
smiles_string = "Nc1ccccc1NC(=O)c1ccc(CSC(=S)N2CCN(c3ccncc3)CC2)cc1"
property_label = "inhibition at 8 µM"
value_measured = "90.7%"

[[record]]
smiles_string = "Nc1ccccc1NC(=O)c1ccc(CSC(=S)N2CCN(c3ccccc3F)CC2)cc1"
property_label = "inhibition at 8 µM"
value_measured = "79.5%"

[[record]]
smiles_string = "CC1CCN(C(=S)SCc2ccc(C(=O)Nc3ccccc3N)cc2)CC1"
property_label = "inhibition at 8 µM"
value_measured = "87.4%"


Then this compound:
Request: For `CN(C(=S)SCc1ccc(C(=O)Nc2ccccc2N)cc1)c1cccnc1` , what is its reported inhibition at 8 µM?
Result: 87.7%

====

- target.system: Protein deacetylase HDAC6 (Homo sapiens, UniProt Q9UBN7)
- Sequence (Q9UBN7 whole entry): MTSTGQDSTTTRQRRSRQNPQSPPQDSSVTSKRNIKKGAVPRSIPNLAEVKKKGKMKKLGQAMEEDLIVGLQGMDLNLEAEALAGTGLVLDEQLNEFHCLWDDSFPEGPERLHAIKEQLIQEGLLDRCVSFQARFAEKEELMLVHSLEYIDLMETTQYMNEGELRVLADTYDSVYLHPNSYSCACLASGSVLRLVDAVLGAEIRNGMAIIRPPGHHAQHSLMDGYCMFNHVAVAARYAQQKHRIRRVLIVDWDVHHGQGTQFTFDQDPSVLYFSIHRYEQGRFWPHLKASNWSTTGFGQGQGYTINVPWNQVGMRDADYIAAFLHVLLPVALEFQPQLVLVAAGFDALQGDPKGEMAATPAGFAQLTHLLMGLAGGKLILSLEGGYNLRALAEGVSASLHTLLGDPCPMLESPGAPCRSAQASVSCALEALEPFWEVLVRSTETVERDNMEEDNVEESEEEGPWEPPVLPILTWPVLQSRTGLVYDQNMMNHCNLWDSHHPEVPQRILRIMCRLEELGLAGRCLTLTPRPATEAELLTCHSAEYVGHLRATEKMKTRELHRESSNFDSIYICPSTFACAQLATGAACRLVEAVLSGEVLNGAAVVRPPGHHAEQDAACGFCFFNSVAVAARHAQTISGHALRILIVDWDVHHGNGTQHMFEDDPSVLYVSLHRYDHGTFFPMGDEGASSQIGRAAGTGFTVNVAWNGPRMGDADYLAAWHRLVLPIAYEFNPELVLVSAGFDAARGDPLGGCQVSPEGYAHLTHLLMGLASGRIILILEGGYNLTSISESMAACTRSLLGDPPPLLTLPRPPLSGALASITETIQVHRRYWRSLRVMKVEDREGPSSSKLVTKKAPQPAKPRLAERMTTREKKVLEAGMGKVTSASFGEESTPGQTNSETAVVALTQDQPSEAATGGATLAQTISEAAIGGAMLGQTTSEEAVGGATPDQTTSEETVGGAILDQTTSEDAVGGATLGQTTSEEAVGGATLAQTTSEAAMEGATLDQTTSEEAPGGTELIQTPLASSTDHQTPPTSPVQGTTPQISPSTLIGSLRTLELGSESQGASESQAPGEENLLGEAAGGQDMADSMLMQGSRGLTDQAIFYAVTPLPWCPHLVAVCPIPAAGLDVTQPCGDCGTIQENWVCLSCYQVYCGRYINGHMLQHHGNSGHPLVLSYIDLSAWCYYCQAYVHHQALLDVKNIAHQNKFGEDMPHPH
- assay.procedure: Inhibition of human recombinant HDAC6 using Fluor de Lys-Green as substrate preincubated for 5 mins followed by substrate addition and measured after 1 hr by fluorescence assay
pIC50: −log10 of the molar value.
property.label: pIC50

Solved cases (2 shown):
[[record]]
smiles_string = "Nc1ccccc1NC(=O)c1ccc(CSC(=S)N2CCN(c3ccncc3)CC2)cc1"
property_label = "pIC50"
value_measured = "< 4.40"

[[record]]
smiles_string = "Nc1ccccc1NC(=O)c1ccc(CSC(=S)N2CCc3ccccc3C2)cc1"
property_label = "pIC50"
value_measured = "< 4.40"


Next molecule, pIC50 to be filled in.
Request: What value of measured pIC50 is listed for `CCN(Cc1ccncc1)C(=S)SCc1ccc(C(=O)Nc2ccccc2N)cc1` ?
Result: < 4.40

Values compiled from ChEMBL document CHEMBL4251578.
